Ref: patent US20030138864A1

Test system: CFU-GM: human bematopoietic progenitor cells
Measurement Notes: Growth inhibition (cytotoxicity, WST-1) of granulocyte progenitors expanded ex vivo (CFU-GM)
Format: cell-based
Applied Conditions: drug exposure time; 168 hr (7 days); read-out: Cytotoxicity (IC50 in nM) CFU-GM
Assay Endpoint: IC50 (nM)
Kindly answer with a numeric value in nM, unit omitted.

Input: # input molecule: C=C1C(n2ccc(NC(=O)CC[C@@H](NC(=O)[C@@H](N)Cc3ccc(-c4ccccc4)cc3)C(=O)O)nc2=O)O[C@H](CO)[C@H]1O (stereo partly shown) [Example 16] ; wanted: its IC50
Output: 2.8

* * *

Catalogue of compounds with associated pIC50
Tested on: CFU-GM: human bematopoietic progenitor cells
Measurement Notes: Growth inhibition (cytotoxicity, WST-1) of granulocyte progenitors expanded ex vivo (CFU-GM)
Format: cell-based
Counter-ions that a name gives are not always drawn.
Scale: pIC50 equals -log10([C]), with [C] in mol/L.

Here is how some compounds turned out for pIC50.
CCc1c2c(nc3ccc(O)cc13)-c1cc3c(c(=O)n1C2)COC(=O)[C@@]3(CC)OC(=O)CC[C@@H](NC(=O)[C@@H](N)Cc1ccccc1)C(=O)O [Example 39, hydrochloride]
7.70
C=C1C(n2ccc(NC(=O)CC[C@@H](NC(=O)[C@@H](N)Cc3ccc4ccccc4c3)C(=O)O)nc2=O)O[C@H](CO)[C@H]1O (stereo partly drawn) [Example 17]
8.96

Please find the next compound below.
Input: Look up pIC50: CC[C@@]1(OC(=O)CC[C@@H](NC(=O)[C@H](N)Cc2c[nH]c3ccccc23)C(=O)O)C(=O)OCc2c1cc1n(c2=O)Cc2cc3ccccc3nc2-1 [Example 31, hydrochloride]
Output: 4.74

* * *

System: CFU-GM: human bematopoietic progenitor cells
Measurement Notes: Growth inhibition (cytotoxicity, WST-1) of granulocyte progenitors expanded ex vivo (CFU-GM)
Type: cell-based
Applied Conditions: drug exposure time; 24 hr, then cultured for 6 days without drugs; read-out: Cytotoxicity (IC50 in nM) CFU-GM
Where a name gives a salt, the structure may show the parent alone.
Assay Endpoint: IC50 (nM)
Write down the numeric answer in nM and omit the unit.

CCCCCN1C=Nc2c3c(nc4cccc1c24)-c1cc2c(c(=O)n1C3)COC(=O)[C@@]2(CC)OC(=O)C[C@@H](NC(=O)[C@@H](N)CC1CCCCC1)C(=O)O [Example 49-11, hydrochloride]
120
CCCCCN1C=Nc2cccc3nc4c(c1c23)Cn1c-4cc2c(c1=O)COC(=O)[C@@]2(CC)OC(=O)CC[C@H](NC(=O)[C@@H](N)Cc1c[nH]c2ccccc12)C(=O)O [Example 49-1, hydrochloride]
61
CCCCCN1C=Nc2c3c(nc4cccc1c24)-c1cc2c(c(=O)n1C3)COC(=O)[C@@]2(CC)OC(=O)CC[C@@H](NC(=O)[C@@H](N)CC1CCCCC1)C(=O)O [Example 49-2, hydrochloride]
31
CCCCCN1C=Nc2cccc3nc4c(c1c23)Cn1c-4cc2c(c1=O)COC(=O)[C@@]2(CC)OC(=O)CC[C@@H](NC(=O)[C@@H](N)Cc1ccccc1)C(=O)O [Example 49-3, hydrochloride]
250

Now for the molecule whose IC50 we want.
Input: Recorded IC50 for CCc1c2c(nc3ccc(O)cc13)-c1cc3c(c(=O)n1C2)COC(=O)[C@]3(O)CC [SN 38, reference compound] , please?
Output: 1.8

* * *

System: HCT116/S5: HCT116 transfected with the human microsomal dipeptidase cDNA
Measurement Notes: Growth inhibition (cytotoxicity, WST-8) of HCT116/S5 cells expressing a high level of microsomal dipeptidase
Type: cell-based
Applied Conditions: Homo sapiens, HCT-116; drug exposure time; 96 hr; read-out: Cytotoxicity (IC50 in nM) HCT116/S5
Assay Endpoint: IC50

Input: Could you share which IC50 value was measured for C=C1[C@H](n2ccc(N)nc2=O)O[C@H](CO)[C@H]1O [DMDC, 2′-deoxy-2′-methylidenecytidine, reference compound] ?
Output: 0.3 nM

* * *

Test system: HCT116/S5: HCT116 transfected with the human microsomal dipeptidase cDNA
Measurement Notes: Growth inhibition (cytotoxicity, WST-8) of HCT116/S5 cells expressing a high level of microsomal dipeptidase
Type: cell-based
Applied Conditions: drug exposure time; 96 hr; read-out: Cytotoxicity (IC50 in nM) HCT116/S5
Assay Endpoint: IC50 (nM)
Reply numerically in nM, unit not repeated.

Input: Query: IC50; subject: C=C1C(n2ccc(NC(=O)CC[C@@H](NC(=O)[C@@H](N)Cc3ccc(-c4ccccc4)cc3)C(=O)O)nc2=O)O[C@H](CO)[C@H]1O (stereo partly shown)
Output: 0.23

* * *

Test system: HCT116: human colon cancer cell line
Measurement Notes: Growth inhibition (cytotoxicity, WST-8) of HCT116 cells expressing only a low level of microsomal dipeptidase
Assay type: cell-based
Applied Conditions: Homo sapiens, HCT-116; drug exposure time; 96 hr; read-out: Cytotoxicity (IC50 in nM) HCT116
Assay Endpoint: IC50 (nM)
API: value field is a number in nM; no unit string.

Input: Param readout = IC50; param system = HCT116: human colon cancer cell line; param query = C=C1[C@H](n2ccc(N)nc2=O)O[C@H](CO)[C@H]1O [DMDC, 2′-deoxy-2′-methylidenecytidine, reference compound] ; response: value
Output: 0.2

* * *

System: HCT116/S5: HCT116 transfected with the human microsomal dipeptidase cDNA
Measurement Notes: Growth inhibition (cytotoxicity, WST-8) of HCT116/S5 cells expressing a high level of microsomal dipeptidase
Type: cell-based
Assay Endpoint: pIC50
Keep it numeric: pIC50 is minus log10 of the concentration in mol/L.

Input: # query: pIC50 of entry C=C1C(n2ccc(NC(=O)CC[C@@H](NC(=O)[C@@H](N)Cc3ccc4ccccc4c3)C(=O)O)nc2=O)O[C@H](CO)[C@H]1O (stereo partly shown) [Example 17]
Output: 10.01
